The measured values listed here are drawn from patent US9617214B2.

assayedSystem: ROCK1 (Homo sapiens)
Sequence (Q13464 whole entry): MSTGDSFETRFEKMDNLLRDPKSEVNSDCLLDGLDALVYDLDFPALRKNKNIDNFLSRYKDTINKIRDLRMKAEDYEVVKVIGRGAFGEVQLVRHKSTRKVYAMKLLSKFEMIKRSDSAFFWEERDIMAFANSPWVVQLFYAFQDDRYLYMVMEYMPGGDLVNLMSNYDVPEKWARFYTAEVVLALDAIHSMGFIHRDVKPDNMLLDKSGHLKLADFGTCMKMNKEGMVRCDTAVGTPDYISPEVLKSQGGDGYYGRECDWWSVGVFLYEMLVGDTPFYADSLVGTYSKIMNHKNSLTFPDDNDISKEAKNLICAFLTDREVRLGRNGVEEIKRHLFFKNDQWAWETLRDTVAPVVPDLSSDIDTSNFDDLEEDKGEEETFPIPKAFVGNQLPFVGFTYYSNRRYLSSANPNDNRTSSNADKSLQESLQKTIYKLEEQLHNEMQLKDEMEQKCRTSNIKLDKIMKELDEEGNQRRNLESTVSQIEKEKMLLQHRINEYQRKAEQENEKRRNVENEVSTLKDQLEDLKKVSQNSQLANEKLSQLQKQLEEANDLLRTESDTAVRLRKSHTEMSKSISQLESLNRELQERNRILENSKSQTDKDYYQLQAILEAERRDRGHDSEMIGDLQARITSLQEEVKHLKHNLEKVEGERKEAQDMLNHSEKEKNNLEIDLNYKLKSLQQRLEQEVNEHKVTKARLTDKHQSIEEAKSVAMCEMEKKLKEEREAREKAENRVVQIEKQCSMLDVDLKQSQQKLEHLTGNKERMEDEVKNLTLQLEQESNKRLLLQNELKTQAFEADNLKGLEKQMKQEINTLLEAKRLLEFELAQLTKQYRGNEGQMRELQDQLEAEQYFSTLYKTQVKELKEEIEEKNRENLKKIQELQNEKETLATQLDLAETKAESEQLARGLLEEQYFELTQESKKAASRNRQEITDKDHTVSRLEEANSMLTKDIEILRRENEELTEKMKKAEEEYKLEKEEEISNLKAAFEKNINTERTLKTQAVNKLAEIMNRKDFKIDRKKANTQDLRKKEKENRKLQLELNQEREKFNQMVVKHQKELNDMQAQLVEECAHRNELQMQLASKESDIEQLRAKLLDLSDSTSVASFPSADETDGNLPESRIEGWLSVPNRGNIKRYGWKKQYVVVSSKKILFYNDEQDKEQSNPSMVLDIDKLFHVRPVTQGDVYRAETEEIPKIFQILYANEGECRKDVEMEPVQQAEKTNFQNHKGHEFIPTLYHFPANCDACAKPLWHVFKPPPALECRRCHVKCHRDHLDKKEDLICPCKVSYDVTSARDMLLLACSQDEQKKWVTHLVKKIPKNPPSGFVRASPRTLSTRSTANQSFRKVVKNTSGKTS
methodNotes: ROCK1 enzyme activity at 10 μM
Assay type: biochemical
conditionInfo: 10 μM compound, Test 2; read-out: % enzyme activity at 10 μM ROCK1 Test 2
testReadout: remaining activity at 10 µM (%)
Your answer is read as %, so omit the unit and give the number.

Reference set, count: 3
compound	assayedSystem	unitsOfMeasure	reading
O=C(NCCc1cccc(Cl)c1)c1ccc(-c2ccncc2)cc1	ROCK1 (Homo sapiens)	%	1.17
O=C(Nc1ccc(-c2cn[nH]c2)cc1)C1COc2ccccc2C1 (stereo not shown)	ROCK1 (Homo sapiens)	%	2.38
O=S(=O)(c1cccc2cnccc12)N1CCCN(Cc2ccc(F)cc2)CC1	ROCK1 (Homo sapiens)	%	6.94

Read the next record carefully.
Data point: O=C(Nc1cccc(-c2ccncc2)c1)C1COc2ccccc2C1 (stereo not shown) ; remaining activity at 10 µM = 2.65

----------
assayedSystem: ROCK2 (Homo sapiens, UniProt O75116)
Sequence (O75116 whole entry): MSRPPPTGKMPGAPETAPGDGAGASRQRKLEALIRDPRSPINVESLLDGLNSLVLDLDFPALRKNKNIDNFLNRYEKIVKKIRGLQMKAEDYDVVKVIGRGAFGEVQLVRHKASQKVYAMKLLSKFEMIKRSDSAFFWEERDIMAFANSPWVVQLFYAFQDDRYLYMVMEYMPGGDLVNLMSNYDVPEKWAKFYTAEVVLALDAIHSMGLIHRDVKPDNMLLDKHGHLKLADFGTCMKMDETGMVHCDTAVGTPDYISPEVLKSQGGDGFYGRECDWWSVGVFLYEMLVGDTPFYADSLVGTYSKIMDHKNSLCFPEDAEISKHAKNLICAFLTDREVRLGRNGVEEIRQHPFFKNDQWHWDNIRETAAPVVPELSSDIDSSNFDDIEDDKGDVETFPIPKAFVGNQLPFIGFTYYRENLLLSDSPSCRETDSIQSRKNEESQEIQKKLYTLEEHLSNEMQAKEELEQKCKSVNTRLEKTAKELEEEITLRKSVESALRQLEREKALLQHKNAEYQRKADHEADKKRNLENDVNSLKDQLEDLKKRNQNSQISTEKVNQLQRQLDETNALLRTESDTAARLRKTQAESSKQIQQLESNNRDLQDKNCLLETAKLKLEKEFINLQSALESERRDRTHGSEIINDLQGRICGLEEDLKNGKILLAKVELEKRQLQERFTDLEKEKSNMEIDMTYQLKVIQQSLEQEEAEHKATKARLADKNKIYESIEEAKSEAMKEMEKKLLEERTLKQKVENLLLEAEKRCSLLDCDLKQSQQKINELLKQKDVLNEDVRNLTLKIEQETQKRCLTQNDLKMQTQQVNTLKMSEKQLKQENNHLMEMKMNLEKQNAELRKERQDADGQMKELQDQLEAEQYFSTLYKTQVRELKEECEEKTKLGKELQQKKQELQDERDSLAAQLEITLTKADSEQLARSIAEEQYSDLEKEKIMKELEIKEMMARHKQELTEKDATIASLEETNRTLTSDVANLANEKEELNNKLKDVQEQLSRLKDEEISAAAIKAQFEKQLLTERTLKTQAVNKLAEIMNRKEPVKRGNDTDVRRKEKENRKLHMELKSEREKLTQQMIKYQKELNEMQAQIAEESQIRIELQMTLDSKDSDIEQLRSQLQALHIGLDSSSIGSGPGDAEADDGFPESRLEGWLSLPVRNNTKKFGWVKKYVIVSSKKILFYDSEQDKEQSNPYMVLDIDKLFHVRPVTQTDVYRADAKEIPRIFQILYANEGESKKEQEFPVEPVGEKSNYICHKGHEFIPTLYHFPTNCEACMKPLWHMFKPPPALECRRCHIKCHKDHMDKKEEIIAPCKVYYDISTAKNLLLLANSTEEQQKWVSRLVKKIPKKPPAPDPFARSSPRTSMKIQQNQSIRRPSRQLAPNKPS
methodNotes: IC50 value for ROCK2 activity
Format: biochemical
conditionInfo: ATP at Km (10 μM), Test 1; read-out: IC50 (μM) ROCK2 Test 1
testReadout: IC50
State the value with its unit after it.

// sample `O=C(NCCc1cccc(Cl)c1)c1ccc(-c2ccncc2)cc1` , its IC50 was 0.0167 µM

----------
assayedSystem: ROCK1 (Homo sapiens)
methodNotes: IC50 value for ROCK1 activity
Format: biochemical
conditionInfo: ATP at Km (10 μM), Test 2; read-out: IC50 (μM) ROCK1 Test 2
testReadout: IC50 (µM)
Number only, in µM; omit the unit.

Memo: O=C(NCCc1cccc(Cl)c1)c1ccc(-c2ccncc2)cc1 [Compound T343] , reported IC50: 0.0227

----------
assayedSystem: ROCK1 (Homo sapiens)
methodNotes: ROCK1 enzyme activity at 10 μM
Format: biochemical
conditionInfo: 10 μM compound, Test 1; read-out: % enzyme activity at 10 μM ROCK1 Test 1
testReadout: remaining activity at 10 µM (%)
Hi! Could you send only the number? It should be in %, unit omitted.

Field: example entries. Status: answers known.
compound	unitsOfMeasure	remaining activity at 10 µM
O=C(NCCc1cccc(Cl)c1)c1ccc(-c2ccncc2)cc1	%	1.22
O=C(Nc1ccc(-c2cn[nH]c2)cc1)C1COc2ccccc2C1 (stereo not shown)	%	0.97
O=S(=O)(c1cccc2cnccc12)N1CCCN(Cc2ccc(F)cc2)CC1	%	6.75

// next entry
Item: O=C(Nc1cccc(-c2ccncc2)c1)C1COc2ccccc2C1 (stereo not shown) | remaining activity at 10 µM: 3.26

----------
assayedSystem: ROCK1 (Homo sapiens)
methodNotes: IC50 value for ROCK1 activity
Type: biochemical
conditionInfo: ATP at Km (10 μM), Test 1; read-out: IC50 (μM) ROCK1 Test 1
testReadout: IC50 (µM)
Your answer is read as µM, so omit the unit and give the number.

Form field IC50, entry O=C(NCCc1cccc(Cl)c1)c1ccc(-c2ccncc2)cc1 [Compound T343] : 0.0318
